# Tested on: CCRF-CEM leukemia
# Protocol details: NCI tumour cell line growth inhibition, 48 h
Recorded GI50 by entry

Some solved cases for reference:
{"Molecule": "CC(=O)OC1C(C)OC(Oc2c(-c3ccc(O)cc3)oc3cc(O)cc(O)c3c2=O)C(O)C1OC(C)=O (centres undefined)", "Reported value": "30.2 µM"}
{"Molecule": "Nc1ccccc1SC(CC(=O)c1ccccc1)c1c(Cl)cccc1Cl (centres undefined)", "Reported value": "2.67 µM"}
{"Molecule": "COc1cccc(/C=C2\\COc3ccc(O)c(O)c3C2=O)c1OC", "Reported value": "0.61 µM"}
{"Molecule": "C[C@H]1CCC/C=C/[C@@H]2C[C@H](O)C[C@H]2[C@H](O)C(O)C(O)C(=O)O1 (some centres undefined)", "Reported value": "2.73 µM"}
{"Molecule": "Cc1nc2sc(C(=O)Nc3cccc4c3OCCO4)c(N)c2cc1C(C)O (centres undefined)", "Reported value": "3.5 µM"}
{"Molecule": "C=CC(=O)N1CCN(c2nc(OC[C@@H]3CCCN3C)nc3c(F)c(-c4nc(N)cc(C)c4C(F)(F)F)c(Cl)cc23)[C@@H](C)C1", "Reported value": "3.08 µM"}

The reported GI50 of the molecule C=CCC(NCc1ccccc1)c1cn(C(=O)OCC)c2ccccc12 (centres undefined) was 19.4 µM

The molecule listed as `Cc1ccc(-c2csc3ncnc(Nc4cccc(O)c4)c23)cc1` has a reported GI50 of 21 µM

// `COc1cccc(C2=C(c3cn(C)c4c(C)cccc34)C(=O)NC2=O)c1` : GI50 value = > 25 µM
